Molecular target: T1, FcRL6, overexpressed on 3T3 cells (UniProt Q6DN72 20-434, limits assumed)
T1 construct: whole, on cells
T1 sequence (looked up): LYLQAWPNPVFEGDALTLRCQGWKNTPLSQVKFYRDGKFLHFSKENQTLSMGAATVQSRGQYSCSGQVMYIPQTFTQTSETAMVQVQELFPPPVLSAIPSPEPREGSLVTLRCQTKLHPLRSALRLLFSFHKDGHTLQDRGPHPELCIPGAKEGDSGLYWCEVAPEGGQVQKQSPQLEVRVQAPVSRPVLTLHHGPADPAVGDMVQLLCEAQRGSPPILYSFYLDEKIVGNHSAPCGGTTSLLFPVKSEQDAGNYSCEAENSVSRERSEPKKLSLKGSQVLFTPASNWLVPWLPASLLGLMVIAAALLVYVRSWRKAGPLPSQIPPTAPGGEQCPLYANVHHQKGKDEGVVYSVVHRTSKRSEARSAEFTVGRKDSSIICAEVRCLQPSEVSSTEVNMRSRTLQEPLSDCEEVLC
Assay: phage clone on 3T3-FcRL6 cells
Observed Property: binding result

Binder	Result
ET200-081 (scFv, screened as phage clone; entry is VL-linker-VH-His tag-HA tag) scFv: QSALTQPASVSGSPGQSITISCTGTSSDIGGYNYVSWYQQHPGKAPKLMIYDVSNRPSGVSNRFSGSKSGNTASLTISGLQAEDEADYYCISYTRTWNPYVFGSGTKVTVLGSRGGGGSGGGGSGGGGSLEMAEVQLVQSGGGVVQPGGSLRLSCAASGFTFDDYAMHWVRQAPGKGLEWVSLISGDGGSTYYADSVKGRFTISRDNSKNSLYLQMNSLRTEDTALYYCAKDRAAAGYYYYGMDVWGQGTTVTVSSTSGQAGQHHHHHHGAYPYDVPDYAS	no binding
ET200-045 (scFv, screened as phage clone; entry is VL-linker-VH-His tag-HA tag) scFv: QPVLTQPPSVSVAPGKTATITCGGNNIGSESVHWYHQKPGQAPVLVIYDDAGRPSGIPERFTGSNSGNTATLTISRVEAGDEADYYCQVWDRNSAQFVFGPGTKVTVLGSRGGGGSGGGGSGGGGSLEMAEVQLVQSGAEVKKPGASVKVSCKASGYTFTSYGISWVRQAPGQGLEWMGWISAYNGNTNYAQKLQGRVTMTTDTSTSTAYMELRSLRSDDTAVYYCARGVHLDWWGQGTLVTVSSTSGQAGQHHHHHHGAYPYDVPDYAS	no binding

Source listed as patent US20210388081A1.
